Origin of the recorded values: patent US20210196796A1

- TARGET OR TEST SYSTEM: T1, orthogonal hCD122 receptor (hoRb), hCD122 with H133D and Y134F (human, UniProt P14784 27-550)
- T1 sequence: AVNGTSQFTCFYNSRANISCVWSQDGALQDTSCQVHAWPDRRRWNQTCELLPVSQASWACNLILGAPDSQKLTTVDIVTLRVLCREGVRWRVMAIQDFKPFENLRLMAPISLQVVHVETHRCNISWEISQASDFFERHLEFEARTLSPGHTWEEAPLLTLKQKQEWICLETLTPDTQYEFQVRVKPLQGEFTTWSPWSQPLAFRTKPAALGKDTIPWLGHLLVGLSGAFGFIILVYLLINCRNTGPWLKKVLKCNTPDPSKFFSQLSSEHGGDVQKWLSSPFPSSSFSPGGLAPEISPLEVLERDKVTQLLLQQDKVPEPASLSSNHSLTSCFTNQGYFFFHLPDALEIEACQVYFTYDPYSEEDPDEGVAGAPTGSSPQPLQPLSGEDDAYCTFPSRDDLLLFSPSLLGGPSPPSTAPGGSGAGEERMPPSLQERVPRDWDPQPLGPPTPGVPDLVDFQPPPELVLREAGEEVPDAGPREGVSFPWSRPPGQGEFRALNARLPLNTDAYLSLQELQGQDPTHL
- PROCEDURE SUMMARY: cell-based or functional assay
Could you please mark MET for values of 3F8 Ortho Proliferation Signal 1:50 below 10000 cts/min and NOT MET for values at or above it?

binder="Q126H, SQVLKA (ligand) APTSSSTKKTQLQLSQLLVLLKAILNGINNYKNPKLTRMLTFKFYMPKKATELKHLQCLEEELKPLEEVLNLAQSKNFHLRPRDLISNINVIVLELKGSETTFMCEYADETATIVEFLNRWITFCHSIISTLT" answer_label="NOT MET"

Input line: I'd appreciate it if you could check whether L18D, SQVLKA (ligand) APTSSSTKKTQLQLSQLDVLLKAILNGINNYKNPKLTRMLTFKFYMPKKATELKHLQCLEEELKPLEEVLNLAQSKNFHLRPRDLISNINVIVLELKGSETTFMCEYADETATIVEFLNRWITFCQSIISTLT has 3F8 Ortho Proliferation Signal 1:50 smaller than 10000 cts/min.
Output line: NOT MET

Input line: I'd appreciate it if you could check whether ΔT3, SQVLKA (ligand) APSSSTKKTQLQLSQLLVLLKAILNGINNYKNPKLTRMLTFKFYMPKKATELKHLQCLEEELKPLEEVLNLAQSKNFHLRPRDLISNINVIVLELKGSETTFMCEYADETATIVEFLNRWITFCQSIISTLT has 3F8 Ortho Proliferation Signal 1:50 smaller than 10000 cts/min.
Output line: NOT MET
